Origin of the recorded values: the supplement of paper PMC10065799

Reported phosphorylation enrichment by item:
Test system: Fer (mouse)
Experiment: phosphorylation enrichment, bacterial display (enrichment ratio); higher = better substrate or ligand; peptides without Tyr show the background;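 further: 11-residue human phosphosite peptides and single-mutation variants displayed on the E. coli surface, counted by deep sequencing, each peptide's frequency after selection divided by its frequency in the unselected input library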;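 further: frequency after pTyr selection over input frequency; kinase dosed for 20-30% of maximal phosphorylation in three min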

| query.sequence | system | phosphorylation enrichment |
| --- | --- | --- |
| DRPSEYAARQL [ANXA13_Y90] | Fer (mouse) | 0.341 |

INPUT: Look up phosphorylation enrichment: LSGVIYVILRK [PMP22_Y153]
OUTPUT: 0.504

INPUT: Look up phosphorylation enrichment: EEGNPYYSSTR [MCCC2_Y520_A524T]
OUTPUT: 0.722

----------
Reported phosphorylation enrichment by item:
Test system: c-Src
Experiment: phosphorylation enrichment, bacterial display (enrichment ratio); higher = better substrate or ligand; peptides without Tyr show the background
Give the value as a plain number.

Look over these answered cases.
| query.sequence | measurement.kind | test.value |
| --- | --- | --- |
| TAIFIYIRPKA [OR10C1_Y258_L255I] | phosphorylation enrichment | 0.521 |
| DTYDPYLDIAL [USP36_Y268_V271I] | phosphorylation enrichment | 2.42 |
| HSVLNYGVCVC [JAK2_Y613_L609S] | phosphorylation enrichment | 0.595 |
| IGEVVYQRAVM [GRIN2A_Y502] | phosphorylation enrichment | 1.57 |

INPUT: Kindly state the measured phosphorylation enrichment obtained for RHPLEYLRQYP [NARS2_Y138] with c-Src.
OUTPUT: 0.577

INPUT: Kindly state the measured phosphorylation enrichment obtained for SKKVRYVVSKA [BARD1_Y156] with c-Src.
OUTPUT: 0.341

INPUT: Kindly state the measured phosphorylation enrichment obtained for GGFTWYCDGKK [PROS1_Y266_C265W_YF] with c-Src.
OUTPUT: 0.299
